Values compiled from paper PMC8391421.

# test.system: fibroblast growth factor receptor (FGFR1) (Homo sapiens)
# Sequence (P11362 22-822): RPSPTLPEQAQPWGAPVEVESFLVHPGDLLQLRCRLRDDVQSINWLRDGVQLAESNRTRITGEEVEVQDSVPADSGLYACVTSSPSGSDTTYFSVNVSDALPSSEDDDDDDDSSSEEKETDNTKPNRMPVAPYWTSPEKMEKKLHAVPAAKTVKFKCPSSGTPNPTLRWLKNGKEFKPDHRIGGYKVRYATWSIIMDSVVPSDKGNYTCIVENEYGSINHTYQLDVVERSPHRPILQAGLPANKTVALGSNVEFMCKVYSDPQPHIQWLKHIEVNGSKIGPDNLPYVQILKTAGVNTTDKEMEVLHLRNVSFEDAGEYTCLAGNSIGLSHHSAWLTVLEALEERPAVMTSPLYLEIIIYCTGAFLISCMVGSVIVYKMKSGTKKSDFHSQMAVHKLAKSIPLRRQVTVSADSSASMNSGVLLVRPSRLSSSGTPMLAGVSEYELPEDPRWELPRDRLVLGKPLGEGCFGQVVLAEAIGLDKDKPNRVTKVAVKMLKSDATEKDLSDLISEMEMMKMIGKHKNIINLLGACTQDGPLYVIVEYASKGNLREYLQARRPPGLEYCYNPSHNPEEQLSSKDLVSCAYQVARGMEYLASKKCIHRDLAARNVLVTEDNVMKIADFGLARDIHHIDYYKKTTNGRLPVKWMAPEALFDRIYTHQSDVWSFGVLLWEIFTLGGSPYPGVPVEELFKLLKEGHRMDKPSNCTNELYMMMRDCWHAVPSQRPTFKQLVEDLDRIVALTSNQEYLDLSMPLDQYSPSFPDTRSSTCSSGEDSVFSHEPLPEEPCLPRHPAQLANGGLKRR
# test.summary: FGFR1 PathHunter cell-based assay (U2OS-FGFR1)
pEC50: −log10 of the molar value.
assay.metric: pEC50

- compound: "Cc1cc(-n2c(=O)[nH]c(=O)n(C)c2=O)ccc1Oc1ccc(S(=O)(=O)C(F)(F)F)cc1 [ACD855, Toltrazuril-sulfone]"
  test.system: "fibroblast growth factor receptor (FGFR1) (Homo sapiens)"
  observed.value: 6.10

---

# test.system: insulin-like growth factor 1 receptor (IGF1R) (Homo sapiens, UniProt P08069)
# Sequence (P08069 31-1367): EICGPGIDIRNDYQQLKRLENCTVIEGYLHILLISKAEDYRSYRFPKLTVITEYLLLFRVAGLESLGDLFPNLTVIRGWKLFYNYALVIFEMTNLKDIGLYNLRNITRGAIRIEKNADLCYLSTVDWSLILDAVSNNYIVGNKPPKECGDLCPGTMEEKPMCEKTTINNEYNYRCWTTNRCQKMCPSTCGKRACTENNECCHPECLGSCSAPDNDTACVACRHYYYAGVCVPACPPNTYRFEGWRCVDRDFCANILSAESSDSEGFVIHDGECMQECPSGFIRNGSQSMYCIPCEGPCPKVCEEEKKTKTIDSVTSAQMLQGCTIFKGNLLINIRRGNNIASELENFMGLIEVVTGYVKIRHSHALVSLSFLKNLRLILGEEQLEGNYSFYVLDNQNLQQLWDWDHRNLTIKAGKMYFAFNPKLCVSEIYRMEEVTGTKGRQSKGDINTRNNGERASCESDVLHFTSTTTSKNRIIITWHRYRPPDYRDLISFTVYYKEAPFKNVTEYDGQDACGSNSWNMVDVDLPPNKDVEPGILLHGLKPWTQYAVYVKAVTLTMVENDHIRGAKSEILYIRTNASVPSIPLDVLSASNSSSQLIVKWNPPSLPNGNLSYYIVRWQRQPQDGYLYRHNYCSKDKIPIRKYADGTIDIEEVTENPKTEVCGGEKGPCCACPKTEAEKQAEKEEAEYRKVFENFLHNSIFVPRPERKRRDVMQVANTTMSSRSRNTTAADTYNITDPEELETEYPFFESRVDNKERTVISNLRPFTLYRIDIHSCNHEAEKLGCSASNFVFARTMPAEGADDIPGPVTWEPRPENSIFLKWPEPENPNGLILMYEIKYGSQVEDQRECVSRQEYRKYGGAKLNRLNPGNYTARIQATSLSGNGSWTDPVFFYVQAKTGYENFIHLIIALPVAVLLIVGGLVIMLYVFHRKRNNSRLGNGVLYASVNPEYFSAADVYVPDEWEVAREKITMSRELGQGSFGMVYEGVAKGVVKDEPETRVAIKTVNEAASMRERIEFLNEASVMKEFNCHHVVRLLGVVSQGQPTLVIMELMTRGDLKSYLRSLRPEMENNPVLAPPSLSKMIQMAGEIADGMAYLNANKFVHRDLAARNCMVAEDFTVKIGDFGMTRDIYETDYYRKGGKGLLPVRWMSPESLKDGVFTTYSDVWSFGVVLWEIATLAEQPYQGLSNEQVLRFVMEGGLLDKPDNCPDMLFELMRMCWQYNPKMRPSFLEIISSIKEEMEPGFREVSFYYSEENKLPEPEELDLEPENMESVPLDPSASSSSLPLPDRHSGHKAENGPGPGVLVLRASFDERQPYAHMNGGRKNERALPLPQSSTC
# test.summary: IGF1R PathHunter cell-based assay (HEK293-IGF1R)
pEC50: −log10 of the molar value.

- compound: "Cc1cc(-n2c(=O)[nH]c(=O)n(C)c2=O)ccc1Oc1ccc(S(=O)(=O)C(F)(F)F)cc1 [ACD855, Toltrazuril-sulfone]"
  pEC50: 6.05

---

# test.system: TrkB (Homo sapiens)
# Sequence (Q16620 32-822): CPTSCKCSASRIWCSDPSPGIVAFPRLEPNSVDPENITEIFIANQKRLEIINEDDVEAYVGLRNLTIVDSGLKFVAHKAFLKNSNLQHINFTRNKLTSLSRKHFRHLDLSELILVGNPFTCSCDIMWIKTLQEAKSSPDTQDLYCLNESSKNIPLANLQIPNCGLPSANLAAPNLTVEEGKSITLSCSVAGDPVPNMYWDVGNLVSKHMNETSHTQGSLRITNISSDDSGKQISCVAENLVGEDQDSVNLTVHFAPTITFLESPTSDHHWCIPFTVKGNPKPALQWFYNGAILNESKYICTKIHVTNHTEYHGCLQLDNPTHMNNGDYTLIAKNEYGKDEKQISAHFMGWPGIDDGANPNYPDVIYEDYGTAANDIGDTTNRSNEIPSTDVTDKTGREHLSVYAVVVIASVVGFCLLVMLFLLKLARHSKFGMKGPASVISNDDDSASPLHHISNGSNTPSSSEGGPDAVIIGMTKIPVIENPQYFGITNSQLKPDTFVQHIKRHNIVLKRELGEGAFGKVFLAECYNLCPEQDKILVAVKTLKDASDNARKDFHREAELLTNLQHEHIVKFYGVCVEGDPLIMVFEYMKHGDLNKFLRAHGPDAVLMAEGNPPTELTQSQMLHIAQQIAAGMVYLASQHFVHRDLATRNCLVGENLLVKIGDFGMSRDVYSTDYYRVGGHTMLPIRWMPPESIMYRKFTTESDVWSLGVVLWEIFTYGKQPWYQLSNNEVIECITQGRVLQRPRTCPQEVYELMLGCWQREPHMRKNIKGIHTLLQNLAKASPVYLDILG
# test.summary: TrkB PathHunter cell-based assay (U2OS-TrkB/p75)
# setup.conditions: PathHunter cell-based assay
pEC50: −log10 of the molar value.

- molecule: "Cc1cc(-n2c(=O)[nH]c(=O)n(C)c2=O)ccc1Oc1ccc(S(=O)(=O)C(F)(F)F)cc1 [ACD855, Toltrazuril-sulfone]"
  pEC50: 5.49
